targetEntity: B1R receptor of the rat (rB1R) (Rattus norvegicus)
Construct: host or cells: CHO K1 cells
Sequence (P97583 1-337): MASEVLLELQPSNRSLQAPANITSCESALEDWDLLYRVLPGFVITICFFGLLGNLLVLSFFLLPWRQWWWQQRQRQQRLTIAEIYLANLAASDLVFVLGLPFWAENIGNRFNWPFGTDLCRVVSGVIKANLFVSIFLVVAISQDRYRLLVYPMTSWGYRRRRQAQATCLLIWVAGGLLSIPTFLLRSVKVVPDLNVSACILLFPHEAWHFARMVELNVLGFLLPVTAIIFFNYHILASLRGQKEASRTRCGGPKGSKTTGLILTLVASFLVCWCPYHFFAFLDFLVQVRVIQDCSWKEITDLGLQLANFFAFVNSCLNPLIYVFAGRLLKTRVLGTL
assayComment: FLIPR Ca2+ assay on rB1R-transfected CHO K1 cells, antagonistic action
Type: cell-based
runConditions: CHO-K1, 10 μM test substance; agonist Des-Arg9-bradykinin 100 nM; % of maximum achievable inhibition; read-out: rB1R [10 μM] % inhibition
We begin with a simple list: items and their reported inhibition at 10 µM.
valueKind: inhibition at 10 µM (%)

compound: COc1cc(C)c(S(=O)(=O)N(C)CCOCC(=O)N2CCC(c3ccccc3)(N(C)C)CC2)c(C)c1
quantitativeReadout: 100

compound: COc1cc(C)c(S(=O)(=O)N2CCCCC2COCC(=O)N(C)CCCC2CCC(c3ccccc3)(N(C)C)CC2)c(C)c1 (stereo not shown)
quantitativeReadout: 98

compound: COc1cc(C)c(S(=O)(=O)N2CCCCC2COCC(=O)N2CCC(c3cccc(F)c3)(N3CCN(C)CC3)CC2)c(C)c1 (stereo not shown)
quantitativeReadout: 101

compound: Cc1cc(S(=O)(=O)N2CCCCC2CCC(=O)N2CCC(c3cccc(F)c3)(N3CCN(C)CC3)CC2)c(C)cc1Cl (stereo not shown)
quantitativeReadout: 37

From: patent US20090253669A1
